Assay: Water solubility of saturated solutions in argon-saturated water, content by HPLC
Format: physicochemical
Conditions: thermodynamic from solid; saturated solution at room temperature in argon-saturated water, HPLC UV 420 nm
assay metric: solubility (µg/mL)

INSERT INTO measurements (compound, numeric_value) VALUES
  ('COc1cc(C=CC(=O)CC(=O)C=Cc2ccc(O)c(OC)c2)ccc1O [Curcumin, reference compound]', 4);
